// data source = the RNAGym collection of RNA variant scans (doi:10.7554/elife.80360)

B1: HDV Ribozyme (parent)
chain: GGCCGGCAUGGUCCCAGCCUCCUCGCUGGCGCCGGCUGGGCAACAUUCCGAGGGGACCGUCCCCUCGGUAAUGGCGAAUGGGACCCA

variants of: B1; assay: self-cleavage, relative activity (ratio to wild type); higher = more cleavage; co-transcriptional
Here, each record is paired with measured self-cleavage data.
Number only, please.

A16U G59A :: 0.967
C26A G31C :: 0.453
C13U G59U :: 0.831
A8G U46G :: 0.623
G1A G80U :: 0.0133
C48A G68C :: 0.707
A43U C63A :: 0.716
C18U G82U :: 0.111
C36U U37A :: 0.0978
A8U C63G :: 0.646

Q) If you can, please state the reported self-cleavage value of G1C C13G .
A) 0.0791

Q) Requested read-out: self-cleavage. Entry: A71G A77C
A) 0.45

Q) Need self-cleavage of A70G A71C , thanks.
A) 0.712

Q) Which self-cleavage reading was recorded for the variant C18G G38U ?
A) 0.0386

Q) Query: self-cleavage; subject: C49U U60A
A) 0.718

Q) self-cleavage for C18U A43G ?
A) 0.17

Q) // returns reported self-cleavage for input C24A A77C
A) 0.185

Q) Endpoint output: self-cleavage of C4A G31A . Value?
A) 0.0415

Q) Which measured self-cleavage value corresponds to C14G G35A ?
A) 0.199

Q) Name the recorded self-cleavage for C14U U69G .
A) 0.755

Q) May I ask what self-cleavage has been recorded for G2C G67C ?
A) 0.113

Q) Name the recorded self-cleavage for G6A U47A .
A) 0.35

Q) Which measured self-cleavage value corresponds to G1C A42G ?
A) 0

Q) Entry C19U U72A has what self-cleavage?
A) 0.0504
